- experiment.description: in vivo
- test.conditions: Sprague-Dawley, rat, po, 10 mg/kg
measured.parameter: half-life (h)
Give just the number in h; leave the unit off.

**Query** Report half-life for CC(C)N1CCN(C(=O)c2ccc(CN3CCCCC3)cc2)CC1 please.
**Result** 33.6

----------
- experiment.description: in vivo
- test.conditions: Sprague-Dawley, rat, iv, 1 mg/kg
measured.parameter: Vd (L)
Report the value in L with no unit label.

**Query** # lookup: Vd of CC(C)N1CCN(C(=O)c2ccc(CN3CCCCC3)cc2)CC1
**Result** 10.6

----------
- experiment.description: in vivo
- test.conditions: Sprague-Dawley, rat, iv, 1 mg/kg
measured.parameter: half-life (h)
Write down the numeric answer in h and omit the unit.

**Query** Quick one: half-life for CC(C)N1CCN(C(=O)c2ccc(CN3CCCCC3)cc2)CC1 ?
**Result** 13.8

----------
- experiment.description: in vivo
- test.conditions: Sprague-Dawley, rat, po, 10 mg/kg
measured.parameter: bioavailability (%)
Report the figure in % without appending any unit label.

**Query** Look up bioavailability: CC(C)N1CCN(C(=O)c2ccc(CN3CCCCC3)cc2)CC1
**Result** 54

----------
- experiment.description: in vivo
- test.conditions: Sprague-Dawley, rat, po, 10 mg/kg
measured.parameter: CL/F (mL/min)
Dear colleague, please return just the value in mL/min, with no unit written.

**Query** Please give the measured CL/F for this molecule: CC(C)N1CCN(C(=O)c2ccc(CN3CCCCC3)cc2)CC1
**Result** 18.3
